# test_name: viability gain of MRP-1-high H69AR cells under doxorubicin, pilot screen, MRP-1 activator project, CellTiter-Glo, duplicate (AID 807);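 further: compound pretreatment 18-22 h then 72 h combined with doxorubicin; 0% = doxorubicin alone and 100% = vehicle without doxorubicin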
# condition_info: H69AR viability with doxorubicin, CellTiter-Glo luminescence; at 10 µM; stronger effect = higher value

compound: O=C(Cn1c(=O)sc2ccccc21)Nc1ccc2c(c1)OCCO2
viability increase / %: -4.54
//
compound: Cn1c2c(c3ccccc31)CC/C2=N\O
viability increase / %: -0.84
//
compound: O=C(OCCN1C(=O)c2ccccc2C1=O)c1cc2ccccc2o1
viability increase / %: 0.07
//
compound: COc1ccc(-c2nc(CSCC(=O)N3CCN(C(=O)c4ccco4)CC3)c(C)o2)cc1OC
viability increase / %: -1.9
//
compound: O=C(Cc1ccc(Cl)cc1)Nc1ccccc1CO
viability increase / %: 0.18
//
compound: CCCSc1nc(N)c2c3c(sc2n1)CN(C)CC3
viability increase / %: -2.7
//
compound: CCOC(=O)C1CCCN(C(=O)c2ccccc2Oc2ccccc2)C1 (stereo unspecified)
viability increase / %: -1.3
//
compound: N#C/C(=C(/O)CN1C(=O)c2ccccc2C1=O)c1nc2ccccc2[nH]1
viability increase / %: 0.55
//
compound: Cc1ccc(OCC(O)CN2CCN(CC(O)COc3ccc(C)cc3Cl)CC2)c(Cl)c1 (stereo unspecified)
viability increase / %: -4.02
//
compound: O=C1c2ccccc2NC(c2ccccc2)N1c1ccc(O)cc1 (stereo unspecified)
viability increase / %: -3.15
//
compound: COc1cccc(C(=O)Nc2ccc(-c3nc4ccccc4o3)c(O)c2)c1
viability increase / %: -4.28
